- measurement.target: pooled human IgG
measured.parameter: Enzyme Activity Endpoint Assay: IgG (ng/µL)
Please state the figure in ng/µL; there is no need to write the unit.

Query string: Record request: Enzyme Activity Endpoint Assay: IgG value, item PRT-40 (protein) MANQEIRYSEVTPYHVTSVWTKGVTPPANFTQGEDVFHAPYVANQGWYDITKTFNGKDDLLCGAATAGNMLHWWFDQNKDQIKRYLEEHPEKQKINFNGEQMFDVKEAIDTKNHQLDSKLFEYFKEKAFPYLSTKHLGVFPDHVLDMFINGYRLSLTNHGPTPVKEGSKDPRGGIFDAVFTRGDQSKLLTSRHDFKEKNLKEISDLIKKELTEGKALGLSHTYANVRINHVINLWGADFDSNGNLKAIYVTDSDSNASIGMKKYFVGVNSAGKVAISAKEIKEDNIGAQVLGLFTLSTGQDSWNQTN
Result string: 14

Query string: Proceed to PRT-591 (protein) MANQEIRYSEETPSTITSVWTKGVTPPTDFIQNEDVLHAPYIANQGWYDITKTFNGKDDLLCGAATAGNMLHWWFDQNKEQIKNYLKKHPEKQKINFNGEQMFDVKEAIDTKDSQTDSALFEYFKDKAFPYLSTKHLGVFPDHVIDMFINGYRLSLTNHGPTPVKRGTKDPRGGIFDAVFTRGDQSKLLTSRHDFKEKTLNEISDLIKQELTEGKALGLSHTYANVRINHVINLWGADFNAEGNLEAIYVTDSDSNASIGMKKYYVGVNSAGKVAISAKEIEGDNIGAQVLGLFTLSTGQDIWNQTNLEHHHHHH
Result string: 671

Query string: Proceed to PRT-24 (protein) MANQEIRYSEVTPYHVTSVWTKGVTPPANFTQGEDVFHAPYVANQGWYDITKTFNGKDDLLCGAATAGNMLHWWFDQNKDQIERYLKEHPEKQKINFNGEQMFDVKEAIDTKDSQTDSKLFEYFKEKAFPYLSTKHLGVFPDHVLDMFINGYRLSLTNHGPTPVKEGSKDPRGGIFDAVFTRGDQSKLLTSRHDFKEKTLKEISDLIKKELTEGKALGLSHTYANVRINHVINLWGADFDSNGNLKAIYVTDSDSNASIGMKKYFVGVNSAGKVAISAKEIKEDNIGAQVLGLFTLSTGQDIWNQTN
Result string: 18

Query string: Proceed to PRT-551 (protein) MANQEIRYSEETPSTITSVWTKGVTPPTDFIQNEDVLHAPYIANQGWYDITKTFNGKDDLLCGAATAGNMLHWWFDQNKEEIENYLKKHPEKQKINFNGEQMFDVKEAIDTKDSQTDSALFEYFKDKAFPYLSTKHLGVFPDHVIDMFINGYRLSLTNHGPTPVKRGTKDPRGGIFDAVFTRGDQSKLLTARHDFKEKTLNEISDLIKQELTEGKALGLSHTYANVRINHVINLWGADFNSEGNLEAIYVTDSDSNASIGMKKYYVGVNAAGKVAISAKEIEGDNIGAQVLGLFTLSTGQDIWNQTNLEHHHHHH
Result string: 0

Source: patent US20250027068
